test system: human maximum recommended daily dose, FDA database; experiment: DSSTox (FDAMDD) FDA Maximum (Recommended) Daily Dose Database; settings: TherapeuticCategory: diuretic; uricosuric; antihypertensive; hits give low values
assay-metric: maximum recommended daily dose (mmol/kg-bw/day)
Note: the reply should be a number with no unit written.

Supply maximum recommended daily dose (mmol/kg-bw/day) value. Item: O=C(O)COc1ccc(C(=O)c2cccs2)c(Cl)c1Cl
0.0252

---

system: human maximum recommended daily dose, FDA database; test: DSSTox (FDAMDD) FDA Maximum (Recommended) Daily Dose Database; conditions: TherapeuticCategory: cholinergic; diagnostic aid; hits give low values
assay-metric: maximum recommended daily dose (mmol/kg-bw/day)

Specify reported maximum recommended daily dose (mmol/kg-bw/day) for the compound shown: CC(=O)OC(C)C[N+](C)(C)C (stereo unspecified)
0.00213

---

# maximum recommended daily dose (mmol/kg-bw/day) per entry
test system: human maximum recommended daily dose, FDA database; experiment: DSSTox (FDAMDD) FDA Maximum (Recommended) Daily Dose Database; details: TherapeuticCategory: diuretic; antihypertensive; hits give low values
Quick one: just the number, no unit, thanks!

>>> meas_value("NS(=O)(=O)c1cc(C2(O)NC(=O)c3ccccc32)ccc1Cl (centres undefined)")
0.00246
>>> meas_value("Cc1cccc(C)c1NC(=O)c1cc(S(N)(=O)=O)c(Cl)cc1O")
0.00188
>>> meas_value("NS(=O)(=O)c1cc2c(cc1Cl)NC(C1CC3C=CC1C3)NS2(=O)=O (centres undefined)")
0.000256

Report maximum recommended daily dose (mmol/kg-bw/day) from human maximum recommended daily dose, FDA database testing of CN1C(CCl)Nc2cc(Cl)c(S(N)(=O)=O)cc2S1(=O)=O (centres undefined)
0.000464

Under human maximum recommended daily dose, FDA database, report maximum recommended daily dose (mmol/kg-bw/day) for CC(C)CC1Nc2cc(Cl)c(S(N)(=O)=O)cc2S(=O)(=O)N1 (centres undefined)
0.000707

Enter measured maximum recommended daily dose (mmol/kg-bw/day), system human maximum recommended daily dose, FDA database, for the compound shown: NS(=O)(=O)c1cc(C(=O)O)c(NCc2ccco2)cc1Cl
0.0302

Please report the measured maximum recommended daily dose (mmol/kg-bw/day) for NS(=O)(=O)c1cc2c(cc1Cl)NC(C(Cl)Cl)NS2(=O)=O (centres undefined) tested on human maximum recommended daily dose, FDA database.
0.000175

# return maximum recommended daily dose (mmol/kg-bw/day) for NS(=O)(=O)c1cc2c(cc1C(F)(F)F)NC(Cc1ccccc1)NS2(=O)=O (centres undefined) , test system: human maximum recommended daily dose, FDA database
0.00079

Given NS(=O)(=O)c1cc2c(cc1Cl)NC(CSCc1ccccc1)=NS2(=O)=O , report its maximum recommended daily dose (mmol/kg-bw/day) on human maximum recommended daily dose, FDA database.
0.00771

---

Measured maximum recommended daily dose (mmol/kg-bw/day) accompanies every entry in the list below.
tested on: human maximum recommended daily dose, FDA database; assay: DSSTox (FDAMDD) FDA Maximum (Recommended) Daily Dose Database; conditions: TherapeuticCategory: antianginal; hits give low values
# print the numeric value only

Worked cases, answers included:
>>> meas_value("O=[N+]([O-])O[C@@H]1CO[C@H]2[C@@H]1OC[C@@H]2O")
0.0105
>>> meas_value("COc1ccc([C@@H]2Sc3ccccc3N(CCN(C)C)C(=O)[C@@H]2OC(C)=O)cc1")
0.0193

Assign maximum recommended daily dose (mmol/kg-bw/day) to the following record: COc1cccc(C(=O)CCN[C@@H](C)[C@H](O)c2ccccc2)c1
0.00255

Name the recorded maximum recommended daily dose (mmol/kg-bw/day) of the compound listed here: CC(C)COCC(CN(Cc1ccccc1)c1ccccc1)N1CCCC1 (centres undefined)
0.0182

Data provenance is PubChem BioAssay AID1195.
